Where do these numbers come from? They come from PubChem BioAssay (NCI).

Provide the reported TGI of each item.
Test system: HCT-15 colon
Protocol: NCI tumour cell line growth inhibition, 48 h

Solved entries (count: 2):
Mol	Assayed System	Measurement Kind	Assay Value
Oc1ccccc1/C=N\NC(=S)N/N=C/c1ccccc1O	HCT-15 colon	TGI	> 100 µM
Cc1[nH]nc2ncc(C(=O)N3CCC[C@H]3c3ccc(Cl)cc3)cc12	HCT-15 colon	TGI	> 100 µM

# next compound below
stdin: In one line, give reported TGI of the entry Cc1cc(C)nc(NS(=O)(=O)c2ccc(NC(=O)NC(F)(F)F)cc2)n1 .
stdout: > 100 µM

---

System: KM12 colon
Protocol: NCI tumour cell line growth inhibition, 48 h
Measurement Kind: TGI

Reference set, count: 3
Molecule	Measurement Kind	Assay Value
O=C1c2cc(F)ccc2-c2c1c1ccc([N+](=O)[O-])cc1c(=O)n2CCCBr	TGI	> 100 µM
Cc1cc2c(cc1Cl)SC(NNC1=NCCN1)=NS2(=O)=O	TGI	> 10 µM
O=c1[nH]nc(Cc2ccccc2)n1/N=C/c1ccc([N+](=O)[O-])cc1	TGI	> 100 µM

Give TGI for each of the items listed below.
1. O=C(O)CN(c1ccc(F)cc1)S(=O)(=O)c1ccccc1
2. CC(C)=NNC(=S)NC12CC3CC(CC(C3)C1)C2
3. O=C(CC1(O)C(=O)Nc2c(Cl)cc(Cl)cc21)c1ccc(F)cc1 (configuration not stated)
4. Cc1ccc(C2=Nc3ccccc3S(=O)C(c3ccc4c(c3)OCO4)C2)cc1 (configuration not stated)
5. CCCCCCCCCCOCCOCCOCCOCCCCC(O)CCCCCCCC1=C[C@H](C)OC1=O (some centres not stated)
6. [Cu+2].[NH-]C(CC(=O)O)C(=O)O.[NH-]C(CC(=O)O)C(=O)O (configuration not stated)
7. CC(C)(C)[Si](C)(C)OCC1OC(n2ccc(=O)[nH]c2=O)C(O[Si](C)(C)C(C)(C)C)[C@]12O[C@@H]2CO (some centres not stated)

stdout:
["> 100 µM", "> 100 µM", "> 100 µM", "57.8 µM", "23.9 µM", "> 100 µM", "35 µM"]

// batch mode: one TGI value per listed entry
1. COC(=O)c1ccc2c(c1)sc1nc(-c3ccc(OC)cc3)cn12
2. N#CC1=C(N)Oc2c(sc3c(Br)cccc23)C1c1ccc(Cl)cc1 (configuration not stated)
3. CNC(=O)c1cccc(C#Cc2cncnc2Nc2ccc(OCc3cccc(F)c3)c(Cl)c2)c1
4. COc1cc(C2C(=O)C(Cl)N2Nc2nc(C)cc(=O)[nH]2)cc(OC)c1OC (configuration not stated)

stdout:
1. > 100 µM
2. 6.2 µM
3. > 19.4 µM
4. 76.9 µM

---

Give TGI for every item shown.
Tested on: K-562 leukemia
Protocol: NCI tumour cell line growth inhibition, 48 h

Recorded results for 3 molecules are shown here.
Molecule	Assayed System	TGI
CC1(C)CCCCCCCCCC2CC2CCC(C)(C)C1=O (centres undefined)	K-562 leukemia	32.6 µM
C=CCOC(=O)Nc1cccn([C@H](CC(C)C)C(=O)NCCC(C)C)c1=O	K-562 leukemia	> 100 µM
CN(C)CCNC(=O)c1ccc2oc3cc4ccccc4c(=O)n3c2c1	K-562 leukemia	> 100 µM

Query molecule follows.
stdin: // fetch TGI given entry CC(=O)OCC1OC(n2ncc(=O)[nH]c2=O)C(OC(C)=O)C1OC(C)=O (centres undefined)
stdout: > 100 µM

---

Answer each item with its documented TGI.
Tested on: MOLT-4 leukemia
Protocol: NCI tumour cell line growth inhibition, 48 h

Reference set, count: 2
Mol	Assay Value
COc1ccc(-c2cn(-c3cc(OC)c(OC)c(OC)c3)c(=O)[nH]2)cc1OC	> 100 µM
O=c1[nH]c(=O)n(CCOc2ccc(Cl)cc2)cc1Nc1ccccc1	> 100 µM

Now consider the entry below.
stdin: Write down the reported TGI (system: MOLT-4 leukemia) of CCOc1cccc(-c2cc(=O)c3cc4c(cc3[nH]2)OCO4)c1
stdout: > 100 µM

---

Tested on: ACHN renal
Protocol: NCI tumour cell line growth inhibition, 48 h
Measurement Kind: GI50

The following molecules have reported results that may help.
Molecule	GI50
COc1cc2c(c(OC)c1OC)-c1c(c3ccc([N+](=O)[O-])cc3c(=O)n1CCCN)C2=O	8.06 µM
COc1cc(C2CC(=O)Nc3c2c(C)nn3-c2nc3ccccc3[nH]2)cc(OC)c1O (stereo not drawn)	3.11 µM
C=C1C(=O)O[C@H]2[C@H]1CC/C(CNC(=O)/C=C/c1ccccc1F)=C\CC[C@@]1(C)O[C@@H]21	1.12 µM
O=S(=O)(NCCCNc1cc(-c2cn(-c3ccccc3)nc2-c2cccc(O)c2)ccn1)c1ccc(Br)cc1	2.97 µM
C=CCOC(=O)Nc1cccn([C@H](CC(C)C)C(=O)NCCC(C)C)c1=O	> 100 µM

Could I get GI50 for every one of these entries?
1. O=c1oc2ccc(Br)cc2c(=O)n1-c1ccc(Cl)cc1F
2. O=C1c2cc(F)ccc2-c2c1c1ccc([N+](=O)[O-])cc1c(=O)n2CCCBr
3. O=C1c2c(Cl)c(Cl)c(Cl)c(Cl)c2C(=O)C2(Cl)CC=CCC12Cl (stereo not drawn)
4. CC(C)(C)c1cc(-c2nc3ccc(N4CCN(CCO)CC4)cc3[nH]2)cc(C(C)(C)C)c1O
5. COc1ccc2c(c1)C(c1cc(OC)c3c(c1)OCO3)C1=C(COC1=O)N2 (stereo not drawn)
6. O=C([CH-]C(=O)c1ccccc1)c1ccccc1.O=C([CH-]C(=O)c1ccccc1)c1ccccc1.O=C([CH-]C(=O)c1ccccc1)c1ccccc1.[Cl-].[Hf+4]
7. CCOC(=O)c1cc(NS(=O)(=O)c2ccc(C)cc2)cc(C(=O)OCC)c1
8. Cc1ccccc1C(C(=O)NC1CCCCC1)N(C(=O)CNc1ncccc1F)c1cccc(F)c1 (stereo not drawn)

stdout:
1: 1.22 µM; 2: 3.91 µM; 3: 1.89 µM; 4: 3.39 µM; 5: 1.57 µM; 6: 33.9 µM; 7: 42.3 µM; 8: 49.8 µM

---

Test system: OVCAR-3 ovarian
Protocol: NCI tumour cell line growth inhibition, 48 h
For each record, write down the corresponding GI50.

The following compounds have reported results that may help.
Compound	Assayed System	GI50
COc1ccc2c(c1)C(c1cc(OC)c3c(c1)OCO3)C1=C(COC1=O)N2 (stereo not drawn)	OVCAR-3 ovarian	0.205 µM
Cn1cc(C2=C(c3cn(CCCCCO)c4ccccc34)C(=O)NC2=O)c2ccccc21	OVCAR-3 ovarian	5.48 µM

Please look at the following compound next.
stdin: Supply recorded GI50 for [Cu+2].[NH-]C(CC(=O)O)C(=O)O.[NH-]C(CC(=O)O)C(=O)O (stereo not drawn) here.
stdout: > 100 µM

---

System: PC-3 prostate
Protocol: NCI tumour cell line growth inhibition, 48 h
Measurement Kind: TGI

Compound	Assay Value
Cn1c(-c2c(N)n(Cc3ccc(F)cc3)c3nc(C#N)c(C#N)nc23)nc2ccccc21	> 50 µM

Please give TGI for each item listed below.
1. CCOC(=O)C12CC(C)=C(C)CC1CCCc1ccccc12 (stereo not drawn)
2. COc1ccc2c(c1)C(c1cc(OC)c3c(c1)OCO3)C1=C(COC1=O)N2 (stereo not drawn)
3. CCNc1nnc(-c2ccccc2Nc2ccccc2-c2nnc(NCC)s2)s1
4. O=CN1CCC23CC(O)CCC2C1Cc1cc(Oc2nnnn2-c2ccccc2)cc(O)c13 (stereo not drawn)
5. C=CC(=O)N1CC[C@H](n2nc(C#Cc3cc(OC)cc(OC)c3)c3c(N)ncnc32)C1
6. Oc1ccccc1/C=N\NC(=S)N/N=C/c1ccccc1O
7. COc1cc(CCNC(=O)OC(C)(C)C)c2c(c1OC)SSSSS2
8. COc1cc2c(c(OC)c1OC)-c1c(c3ccc([N+](=O)[O-])cc3c(=O)n1CCCN)C2=O

stdout:
1: 68.1 µM; 2: > 100 µM; 3: > 69.4 µM; 4: > 100 µM; 5: > 100 µM; 6: > 100 µM; 7: 13.6 µM; 8: 15 µM

---

Tested on: SF-268 CNS
Protocol: NCI tumour cell line growth inhibition, 48 h
Measurement Kind: TGI

Take a look at these entries with their results.
Molecule	Assayed System	TGI
Cc1cc2c(cc1Cl)SC(NNC1=NCCN1)=NS2(=O)=O	SF-268 CNS	> 10 µM
CN1NC(c2ccccc2)=C(C#N)C(=O)CC1c1ccc(F)cc1 (stereo not given)	SF-268 CNS	> 100 µM
C=C(Cl)C(C)(Cl)CCC(Cl)C(C)C (stereo not given)	SF-268 CNS	> 100 µM
CCOC(=O)C1SC(=Nc2ccc(Cl)cc2Cl)N=C1C (stereo not given)	SF-268 CNS	> 100 µM
N#Cc1c(-c2ccc(Cl)cc2)c2c([nH]c1=O)-c1cc([N+](=O)[O-])ccc1CCC2	SF-268 CNS	44.2 µM
O=S(=O)(c1cc(Cl)ccc1Cl)N1CCN(c2cccc(Cl)c2)CC1	SF-268 CNS	> 100 µM

Provide TGI values for the following items, in order.
1. CCOC(=O)C1(N)CC1
2. CCCC[C@H]1C(=O)O[C@H](C)[C@H](NC(=O)c2cccc(NC=O)c2OC)C(=O)O[C@@H](C)[C@@H]1OC(=O)CC(C)C (tested in a mixture with another compound)
3. CC(=O)NC1COC(COC(=O)CCCCCCCCCCNC(=O)c2ccc([N+](=O)[O-])c3c(=O)c4ccccc4[nH]c23)C(O)C1OC(C)C(=O)NC(C(=O)NC(CCC(N)=O)C(=O)OCc1ccccc1)C(C)C (stereo not given)
4. CCOC(=O)/C(=C\NC(C)(C)CO)c1nc2ccccc2[nH]1

stdout:
["> 100 µM", "38.5 µM", "32.8 µM", "> 100 µM"]
